// data source = patent US8980906B2

target: μ-opioid receptor (Homo sapiens (Human)); test: μ-opioid receptor [35S]GTPγS functional assay, U-2 OS cells; type: biochemical; details: relative to DAMGO; U-2 OS cells
Examples of compounds with documented Emax follow.
Field format: number, assumed %, no unit text.

Recorded Emax, per entry:
compound: CN(C)C(=O)c1cc2c([nH]c1=O)C[C@]13CCN(C)[C@H](Cc4ccc(O)cc41)[C@]3(O)C2 [Compound 46]
experimental-system: μ-opioid receptor (Homo sapiens (Human))
measured-property: Emax
measure-unit: %
numeric-result: 84.7
--
compound: O=C(c1ccccc1)c1cc2c([nH]c1=O)C[C@]13CCN(CC4CC4)[C@H](Cc4ccc(O)cc41)[C@]3(O)C2 [Compound 59]
experimental-system: μ-opioid receptor (Homo sapiens (Human))
measured-property: Emax
measure-unit: %
numeric-result: 2.5
--
compound: COc1ccc2c(c1)[C@]13CCN(Cc4ccccc4)[C@H](C2)[C@]1(O)Cc1cc(C(N)=O)c(=O)[nH]c1C3 [Compound 31]
experimental-system: μ-opioid receptor (Homo sapiens (Human))
measured-property: Emax
measure-unit: %
numeric-result: 10.7

// next entry
// compound CN1CC[C@]23Cc4[nH]c(=O)c(C(=O)N5CCC[C@H]5C(N)=O)cc4C[C@@]2(O)[C@H]1Cc1ccc(O)cc13 [Compound 53] , assay μ-opioid receptor (Homo sapiens (Human)), Emax value: 84

* * *

Target: κ-opioid receptor (Homo sapiens (Human))
Test: κ-opioid receptor [35S]GTPγS functional assay, HEK-293 or CHO cells
Format: biochemical
Method: κ-Opioid Receptor Functional Assay Procedures: Functional [^35S]GTPγS binding assays were conducted as follows. κ opioid receptor membrane solution was prepared by sequentially adding final concentrations of 0.026 μg/μl κ membrane protein (in-house), 10 μg/mL saponin, 3 μM GDP and 0.20 nM [^35S]GTPγS to binding buffer (100 mM NaCl, 10 mM MgCl2, 20 mM HEPES, pH 7.4) on ice. […]
pEC50: −log10 of the molar value.
measured-property: pEC50

Recorded pEC50, per entry:
chem-smiles: NC(=O)c1cc2c([nH]c1=O)C[C@]13CCN(CCc4ccccc4)[C@H](Cc4ccc(O)cc41)[C@]3(O)C2
experimental-system: κ-opioid receptor (Homo sapiens (Human))
pEC50: < 4.70
//
chem-smiles: C[C@H](NC(=O)c1cc2c([nH]c1=O)C[C@]13CCN(CC4CC4)[C@H](Cc4ccc(O)cc41)[C@]3(O)C2)C(N)=O
experimental-system: κ-opioid receptor (Homo sapiens (Human))
pEC50: < 4.70
//
chem-smiles: NC(=O)CNC(=O)c1cc2c([nH]c1=O)C[C@]13CCN(CC4CC4)[C@H](Cc4ccc(O)cc41)[C@]3(O)C2
experimental-system: κ-opioid receptor (Homo sapiens (Human))
pEC50: < 4.70

Lookup result for NC(=O)[C@@H]1CCCN1C(=O)c1cc2c([nH]c1=O)C[C@]13CCN(CC4CC4)[C@H](Cc4ccc(O)cc41)[C@]3(O)C2 ; measured pEC50: < 4.70

Lookup result for NC(=O)C[C@H](NC(=O)c1cc2c([nH]c1=O)C[C@]13CCN(CC4CC4)[C@H](Cc4ccc(O)cc41)[C@@H]3C2)C(N)=O ; measured pEC50: 8.05

* * *

biological target: μ-opioid receptor (Homo sapiens (Human), UniProt P35372); assay: μ-opioid receptor [35S]GTPγS functional assay, HEK-293 or CHO cells; format: biochemical
measured-property: EC50

chem-smiles: NC(=O)C[C@H](NC(=O)c1cc2c([nH]c1=O)C[C@]13CCN(CC4CC4)[C@H](Cc4ccc(O)cc41)[C@@H]3C2)C(N)=O
EC50: 7.54 nM

chem-smiles: NC(=O)c1cc2c([nH]c1=O)C[C@]13CCN(CCc4ccccc4)[C@H](Cc4ccc(O)cc41)[C@]3(O)C2
EC50: 268 nM

chem-smiles: NC(=O)[C@H](Cc1ccccc1)NC(=O)c1cc2c([nH]c1=O)C[C@]13CCN(CC4CC4)[C@H](Cc4ccc(O)cc41)[C@@H]3C2
EC50: 3.19 nM

chem-smiles: CC(C)C[C@H](NC(=O)c1cc2c([nH]c1=O)C[C@]13CCN(CC4CC4)[C@H](Cc4ccc(O)cc41)[C@@H]3C2)C(N)=O
EC50: 5.2 nM

Lookup result for CN(C(=O)c1cc2c([nH]c1=O)C[C@]13CCN(CC4CC4)[C@H](Cc4ccc(O)cc41)[C@@H]3C2)C1CCCCC1 ; measured EC50: > 20000 nM

* * *

Examples of molecules with documented Emax follow.
Molecular target: κ-opioid receptor (Homo sapiens (Human), UniProt P41145)
Assay: κ-opioid receptor [35S]GTPγS functional assay, HEK-293 or CHO cells
Format: biochemical
Conditions: relative to U69,593; HEK-293 or CHO cells
Procedure: κ-Opioid Receptor Functional Assay Procedures: Functional [^35S]GTPγS binding assays were conducted as follows. κ opioid receptor membrane solution was prepared by sequentially adding final concentrations of 0.026 μg/μl κ membrane protein (in-house), 10 μg/mL saponin, 3 μM GDP and 0.20 nM [^35S]GTPγS to binding buffer (100 mM NaCl, 10 mM MgCl2, 20 mM HEPES, pH 7.4) on ice. […]
Field format: number, assumed %, no unit text.

molecule: NC(=O)C[C@H](NC(=O)c1cc2c([nH]c1=O)C[C@]13CCN(CC4CC4)[C@H](Cc4ccc(O)cc41)[C@@H]3C2)C(N)=O [Compound 26]
experimental-system: κ-opioid receptor (Homo sapiens (Human), UniProt P41145)
measured-property: Emax
numeric-result: 39

molecule: COc1ccc2c(c1)[C@]13CCN(CC4CC4)[C@H](C2)[C@]1(O)Cc1cc(C(N)=O)c(=O)[nH]c1C3 [Compound 4]
experimental-system: κ-opioid receptor (Homo sapiens (Human), UniProt P41145)
measured-property: Emax
numeric-result: 39.7

// next entry
Lookup result for NC(=O)CNC(=O)c1cc2c([nH]c1=O)C[C@]13CCN(CC4CC4)[C@H](Cc4ccc(O)cc41)[C@@H]3C2 [Compound 21] ; measured Emax: 41

* * *

biological target: UniProt P35372; assay: μ-opioid receptor [35S]GTPγS functional assay, HEK-293 or CHO cells; assay type: biochemical; conditions: relative to DAMGO; HEK-293 or CHO cells
Examples of compounds with documented Emax follow.
Param answer (str): number followed by unit.

chem-smiles: CC(C)C[C@H](NC(=O)c1cc2c([nH]c1=O)C[C@]13CCN(CC4CC4)[C@H](Cc4ccc(O)cc41)[C@@H]3C2)C(N)=O
Emax: 37%

chem-smiles: O=C(N[C@H]1c2ccccc2C[C@H]1O)c1cc2c([nH]c1=O)C[C@]13CCN(CC4CC4)[C@H](Cc4ccc(O)cc41)[C@@H]3C2
Emax: -1%

chem-smiles: NC(=O)CNC(=O)c1cc2c([nH]c1=O)C[C@]13CCN(CC4CC4)[C@H](Cc4ccc(O)cc41)[C@@H]3C2
Emax: 23.7%

chem-smiles: CN(C(=O)c1cc2c([nH]c1=O)C[C@]13CCN(CC4CC4)[C@H](Cc4ccc(O)cc41)[C@@H]3C2)C1CCCCC1
Emax: -1%

chem-smiles: NC(=O)[C@H](Cc1ccccc1)NC(=O)c1cc2c([nH]c1=O)C[C@]13CCN(CC4CC4)[C@H](Cc4ccc(O)cc41)[C@]3(O)C2
Emax: -0.33%

chem-smiles: COC(=O)c1cc2c([nH]c1=O)C[C@]13CCN(CC4CC4)[C@H](Cc4ccc(OC)cc41)[C@@H]3C2
Emax: 15.7%

// next entry
Lookup result for C[C@H](NC(=O)c1cc2c([nH]c1=O)C[C@]13CCN(CC4CC4)[C@H](Cc4ccc(O)cc41)[C@]3(O)C2)C(N)=O ; measured Emax: 14.7%

* * *

Molecular target: κ-opioid receptor (Homo sapiens (Human))
Assay: κ-opioid receptor [35S]GTPγS functional assay, U-2 OS cells
Assay type: biochemical
Details: relative to U69,593; U-2 OS cells
Description: κ-Opioid Receptor Functional Assay Procedures: Functional [^35S]GTPγS binding assays were conducted as follows. κ opioid receptor membrane solution was prepared by sequentially adding final concentrations of 0.026 μg/μl κ membrane protein (in-house), 10 μg/mL saponin, 3 μM GDP and 0.20 nM [^35S]GTPγS to binding buffer (100 mM NaCl, 10 mM MgCl2, 20 mM HEPES, pH 7.4) on ice. […]
Examples of molecules with documented Emax follow.
Field format: number, assumed %, no unit text.

Recorded Emax, per entry:
chem-smiles: CN1CC[C@]23Cc4[nH]c(=O)c(C(=O)N5CCOCC5)cc4C[C@@]2(O)[C@H]1Cc1ccc(O)cc13
experimental-system: κ-opioid receptor (Homo sapiens (Human))
measured-property: Emax
numeric-result: 50

chem-smiles: CN1CC[C@]23Cc4[nH]c(=O)c(C(=O)N5CCC[C@H]5C(N)=O)cc4C[C@@]2(O)[C@H]1Cc1ccc(O)cc13
experimental-system: κ-opioid receptor (Homo sapiens (Human))
measured-property: Emax
numeric-result: 68.3

Lookup result for CN1CC[C@]23Cc4c(cc(C(N)=O)c(=O)n4C)C[C@@]2(O)[C@H]1Cc1ccc(O)cc13 ; measured Emax: 54
